- Assay: rapamycin-like changes in RPL19A-GFP expression – cell-based, S. cerevisiae, multiplex flow cytometry, primary screen (AID 1862);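 further: lower values mimic rapamycin by blocking the RPL19A rise seen in DMSO cells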
- Details: S. cerevisiae RPL19A-GFP strain, flow cytometry fluorescence, 3 h; at 10 µM; stronger effect = lower value
Results filed as inconclusive are left out.
compounds and their reported percent of DMSO control GFP
Give just the number in %; leave the unit off.

Bench note: what percent of DMSO control GFP did COC(=O)C1[C@H]2C(=O)N(Cc3cccs3)C[C@]23C=C[C@H]1O3 (stereo partly drawn) show?
105

Others:
Bench note: what percent of DMSO control GFP did CSc1ccc(CN2CCN(CCC(C)C)C(CCO)C2)cc1 (stereo not drawn) show?
101

Bench note: what percent of DMSO control GFP did O=C(c1ccco1)N(CCC(c1ccccc1)c1ccco1)Cc1ccco1 (stereo not drawn) show?
103

Bench note: what percent of DMSO control GFP did O=C(/C=C/c1ccc2c(c1)OCO2)NCc1ccc(F)cc1 show?
101

Bench note: what percent of DMSO control GFP did CCCCCCCC(=O)OCC(=O)[C@@]1(O)CC[C@H]2[C@@H]3CCC4=CC(=O)CC[C@]4(C)[C@H]3[C@@H](O)C[C@@]21C show?
102

Bench note: what percent of DMSO control GFP did Cc1ccc2c(ccc(=S)n2C)c1 show?
103

Bench note: what percent of DMSO control GFP did COc1ccc(-c2nc(NC(C)=O)sc2-c2ccc(OC)cc2)cc1 show?
104

Bench note: what percent of DMSO control GFP did COc1ccc(N2C(=O)[C@@H]3[C@H](C2=O)[C@H]2c4ccccc4C=CN2[C@@H]3C(C)=O)cc1 show?
101

Bench note: what percent of DMSO control GFP did O=C(Cc1cccc2ccccc12)N1CC[C@@]2(O)CCCC[C@H]2C1 show?
92

Bench note: what percent of DMSO control GFP did Fc1ccccc1CNCCC(Cc1ccccc1)c1ccc2c(c1)OCO2 (stereo not drawn) show?
98.8

Bench note: what percent of DMSO control GFP did Cc1ccccc1C(=O)NNc1ncnc2c1cnn2C show?
104

Bench note: what percent of DMSO control GFP did O=C(OCC1CCCN2CCCCC12)c1ccc2c(c1)OCO2 (stereo not drawn) show?
93.7

Bench note: what percent of DMSO control GFP did Cc1ccc2ncnc(NCCCCCC(=O)O)c2c1 show?
105

Bench note: what percent of DMSO control GFP did NC(=O)c1cccnc1 show?
86.7

Bench note: what percent of DMSO control GFP did C[C@@H]1CCC[C@H](C)N1NC(=O)c1ccc(Cl)c(S(N)(=O)=O)c1 show?
105

Bench note: what percent of DMSO control GFP did CCCc1cc(=O)[nH]c(=S)[nH]1 show?
99.1

Bench note: what percent of DMSO control GFP did O=C(Nc1ccc(Cl)cn1)Nc1ccccc1Cl show?
103

Bench note: what percent of DMSO control GFP did Cc1ccsc1/C=C/C1=NCCCN1C show?
106

###

- Assay: TOR pathway RTG branch CIT2 reporter changes – S. cerevisiae, GFP fusion, multiplex flow cytometry, primary screen (AID 1870);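 further: barcoded CIT2-GFP strain pooled with four other GFP strains with rapamycin as positive control; median GFP fluorescence per well over plate mean of DMSO wells so 100% = DMSO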
- Details: S. cerevisiae CIT2-GFP expression, 3 h, at 10 µM, stronger effect = higher value
compounds and their reported percent response of DMSO control
Give just the number in %; leave the unit off.

Bench note: what percent response of DMSO control did CN(C)CCCN1c2ccccc2Sc2ccc(C(F)(F)F)cc21 show?
99

Others:
Bench note: what percent response of DMSO control did Cc1ccccc1-c1nn(-c2ccc(F)cc2F)cc1CNCCN(C)C show?
116

Bench note: what percent response of DMSO control did CC(=O)N1CCN2C(=O)C1CCCC(=O)c1cc(C(C)C)ccc12 (stereo not drawn) show?
103

###

compounds and their reported efflux inhibition (fraction of control)
- Assay: Nile Red efflux blockade in pump-expressing yeast – validation compound set, multiplex, phenotypic, pilot screen (AID 588506);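 further: Nile Red retained in cells so higher fluorescence means more efflux inhibition; 0 = negative control wells and 1 = enniatin B 25 µM full block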
- Details: S. cerevisiae pump-expressing triplex, Nile Red efflux flow cytometry; at 10 µM; stronger effect = higher value; the pumps come from Candida albicans
The source made the active and inactive calls.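 How the source made its calls: active means efflux inhibition above 0.42, the validation set average plus 4 SD; inconclusive means no clear call, values can overlap the other calls; inactive means the rest.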

See these solved cases before continuing.
Bench note: what efflux inhibition (fraction of control) did Cc1ccc(CN2CCN(Cc3cn[nH]c3C3CCCCC3)CC2CCO)cc1 (stereo not given) show?
0.08 (inactive)

Bench note: what efflux inhibition (fraction of control) did CC1(C)CC(c2csc(N)n2)CCO1 (stereo not given) show?
-0.14 (inactive)

Bench note: what efflux inhibition (fraction of control) did Nc1nc(SCc2ccc([N+](=O)[O-])cc2)c2ncn(C3OC(CO)C(O)C3O)c2n1 (stereo not given) show?
-0.07 (inactive)

Others:
Bench note: what efflux inhibition (fraction of control) did COc1ccc(Cc2noc(CN(C)CC3(N4CCOCC4)CCCCC3)n2)cc1OC show?
0.22 (inactive)

Bench note: what efflux inhibition (fraction of control) did O=c1[nH]c(=O)n([C@H]2C[C@H](O)[C@@H](CO)O2)cc1C(F)(F)F show?
0.02 (inactive)

Bench note: what efflux inhibition (fraction of control) did CC(C(=O)O)c1cccc(C(=O)c2ccccc2)c1 (stereo not given) show?
0.36 (inactive)

Bench note: what efflux inhibition (fraction of control) did COc1ccc(Cc2noc(CN(C)CCN3CCc4ccccc4C3)n2)cc1OC show?
-0.1 (inactive)

Bench note: what efflux inhibition (fraction of control) did O=C(CCCn1c(=O)oc2ccccc21)N1CCN(c2ccc(F)cc2)CC1 show?
0.15 (inactive)

Bench note: what efflux inhibition (fraction of control) did C=C(C)[C@@H]1CC=C(CN2CCC(N3CCC(C(=O)N4CCCC4)CC3)CC2)CC1 show?
0.08 (inactive)

Bench note: what efflux inhibition (fraction of control) did O=C(CN1C(=O)c2ccccc2S1(=O)=O)Nc1ccccc1 show?
-0.31 (inactive)

###

- System: Beta-adrenergic receptor kinase 1 (Homo sapiens) (UniProt P25098)
- Sequence (P25098 whole entry, looked up): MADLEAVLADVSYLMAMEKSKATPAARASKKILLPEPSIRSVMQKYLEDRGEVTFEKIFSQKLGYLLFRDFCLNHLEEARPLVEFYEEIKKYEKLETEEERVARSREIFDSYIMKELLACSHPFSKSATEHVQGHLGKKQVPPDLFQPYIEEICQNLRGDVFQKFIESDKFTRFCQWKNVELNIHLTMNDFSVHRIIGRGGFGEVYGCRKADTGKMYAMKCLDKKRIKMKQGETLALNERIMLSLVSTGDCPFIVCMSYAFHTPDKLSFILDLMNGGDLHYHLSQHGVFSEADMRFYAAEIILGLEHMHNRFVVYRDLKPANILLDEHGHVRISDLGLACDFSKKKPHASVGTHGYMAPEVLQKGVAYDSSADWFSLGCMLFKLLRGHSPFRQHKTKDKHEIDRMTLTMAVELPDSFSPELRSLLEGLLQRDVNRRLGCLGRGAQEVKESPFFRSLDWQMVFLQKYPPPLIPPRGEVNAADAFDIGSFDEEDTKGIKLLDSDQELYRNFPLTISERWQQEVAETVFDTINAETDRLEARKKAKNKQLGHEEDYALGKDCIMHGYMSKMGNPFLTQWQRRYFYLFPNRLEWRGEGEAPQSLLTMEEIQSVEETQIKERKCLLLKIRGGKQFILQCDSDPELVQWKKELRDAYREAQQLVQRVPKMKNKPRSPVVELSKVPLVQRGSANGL
- Assay: GRK2 binders displacing RNA aptamer, biochemical, validation, human GRK2, bead flow cytometry (AID 488806)
- Details: bead-bound GRK2, FAM-aptamer displacement, at 10 µM, stronger effect = higher value
Measure: aptamer binding inhibition (%)
Give just the number in %; leave the unit off.

See these solved cases before continuing.
Bench note: what aptamer binding inhibition did COc1cc2c(cc1OC)/C(=C/c1ccc(Cl)cc1)C(=O)OC2 show?
4

Bench note: what aptamer binding inhibition did COc1cccc(/C=C/C(=O)c2c(O)cc(C)oc2=O)c1O show?
3

Bench note: what aptamer binding inhibition did CN(C)CC/C=C1\c2ccccc2Sc2ccc(Cl)cc21 show?
-5

# ---- query compound ----
Bench note: what aptamer binding inhibition did COCc1cc(=O)[nH]c(/N=C(\N)Nc2ccc(Oc3ccccc3)cc2)n1 show?
2

###

compounds and their reported double positive events
- Assay: reduced mouse 2C T cell binding to pMHC/ICAM-1 vesicles – MLPCN validation set, flow cytometry, LFA-1/ICAM-1 modulator project, pilot screen (AID 2523)
- Details: 2C mouse CD8+ T cells, at 7 µM, stronger effect = lower value; measured here: CD8+/vesicle+ event percentage
Give just the number in %; leave the unit off.

Bench note: what double positive events did CC(OC(=O)c1cc(=O)[nH]c2ccccc12)C(=O)c1ccccc1 (centres undefined) show?
58.9

Bench note: what double positive events did CC(=O)[C@H]1[C@H](C#N)C[C@H]2[C@@H]3CC=C4C[C@@H](O)CC[C@]4(C)[C@H]3CC[C@@]21C show?
62.5

Bench note: what double positive events did Nc1ccc(-c2nc3ncccc3o2)c(Cl)c1 show?
56.7

# ---- query compound ----
Bench note: what double positive events did O=C(OCCN1CCOCC1)c1cccs1 show?
64.9

###

- System: anti-desmoglein-3 scFv antibody binding to human DSG3
- Assay: blockers of pathogenic pemphigus antibody–desmoglein-3 binding – biochemical, validation compound set, bead-based, flow cytometry, pilot screen (AID 588368);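 further: signal is the median channel fluorescence of bead-bound GFP antibody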
- Details: Protein G beads, DSG3-Fc, scFv-GFP binding, at 10 µM, stronger effect = lower value
Measure: binding (% of control) (%)
Give just the number in %; leave the unit off.

See these solved cases before continuing.
Bench note: what binding (% of control) did Cn1c([N+](=O)[O-])cnc1COC(N)=O show?
105

Bench note: what binding (% of control) did O=C(CN1C(=O)c2ccccc2S1(=O)=O)Nc1ccccc1 show?
99

Bench note: what binding (% of control) did CCOC(=O)C1(Cc2cccc(Cl)c2)CCCN(C2CCN(C(C)=O)CC2)C1 (stereo not drawn) show?
177

Bench note: what binding (% of control) did c1ccc2c(c1)CCOC2CNCCCN1CCCCC1 (stereo not drawn) show?
105

Bench note: what binding (% of control) did Cc1ccc2[nH]c(=O)c(Cc3ccccc3)c(O)c2c1 show?
90.6

Others:
Bench note: what binding (% of control) did COc1ccc(CCN=CC2=C(O)CC(C)(C)CC2=O)cc1 show?
101

Bench note: what binding (% of control) did CCCCNc1ccc(C(=O)OCCN(C)C)cc1 show?
101

Bench note: what binding (% of control) did COc1ccc(C2C(C#N)=C(N)Oc3cc(C)[nH]c(=O)c32)c(OC)c1OC (stereo not drawn) show?
109
